ASSAY_SYSTEM: T1, human LTβR extracellular domain fused with an Fc fragment at the C-terminus (human, UniProt P36941 31-227)
T1 construct: extracellular domain; Bought; also called hLTβR; not shown: Fc fragment at the C-terminus
T1 sequence (P36941 31-227): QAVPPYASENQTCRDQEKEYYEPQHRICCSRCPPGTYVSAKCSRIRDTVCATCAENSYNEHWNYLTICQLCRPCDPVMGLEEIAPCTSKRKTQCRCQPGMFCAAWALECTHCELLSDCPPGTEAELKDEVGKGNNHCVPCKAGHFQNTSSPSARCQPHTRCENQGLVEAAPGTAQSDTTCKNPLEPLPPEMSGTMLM
TEST_PROTOCOL: ELISA on coated target-Fc
EXPERIMENTAL_READOUT: EC50 (nM)
Answers are plain numbers, in nM.

{"BINDER": "LIGHT-86 (ligand, Printed mutations: G150R, S160R, L220S; Soluble protein carries an N-terminal His tag) DGPAGSWEQLIQERRSHEVNPAAHLTGANSSLTGSGGPLLWETQLGLAFLRGLSYHDGALVVTKAGYYYIYSKVQLRGVGCPLGLARTITHGLYKRTPRYPEELELLVSQQSPCGRATSSSRVWWDSSFLGGVVHLEAGEKVVVRVSDERLVRLRDGTRSYFGAFMV", "UNIT_LABEL": "nM", "EC50": 0.336}
{"BINDER": "LIGHT-90 (ligand, Printed mutations: S160G, T161G, L220T, E222S; Soluble protein carries an N-terminal His tag) DGPAGSWEQLIQERRSHEVNPAAHLTGANSSLTGSGGPLLWETQLGLAFLRGLSYHDGALVVTKAGYYYIYSKVQLGGVGCPLGLAGGITHGLYKRTPRYPEELELLVSQQSPCGRATSSSRVWWDSSFLGGVVHLEAGEKVVVRVTDSRLVRLRDGTRSYFGAFMV", "UNIT_LABEL": "nM", "EC50": 1.78}

// next item, EC50 requested
Q: What value of EC50 has been reported for the following binder? LIGHT-61 (ligand, Printed mutations: S160G, T161P, L220S, E222S; Soluble protein carries an N-terminal His tag) DGPAGSWEQLIQERRSHEVNPAAHLTGANSSLTGSGGPLLWETQLGLAFLRGLSYHDGALVVTKAGYYYIYSKVQLGGVGCPLGLAGPITHGLYKRTPRYPEELELLVSQQSPCGRATSSSRVWWDSSFLGGVVHLEAGEKVVVRVSDSRLVRLRDGTRSYFGAFMV
Ans: 0.482
